The origin of these recorded values is the supplement of paper PMC10065799.

Kindly state phosphorylation enrichment for each of the entries shown.
- System: Fer (mouse);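 also: 11-residue human phosphosite peptides and single-mutation variants displayed on the E. coli surface, counted by deep sequencing, each peptide's frequency after selection divided by its frequency in the unselected input library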;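 also: frequency after pTyr selection over input frequency; kinase dosed for 20-30% of maximal phosphorylation in three min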
- protocol_text: phosphorylation enrichment, bacterial display (enrichment ratio); higher = better substrate or ligand; peptides without Tyr show the background

Reference set, count: 5
construct_sequence="DCVRMYELVHR [GLE1_Y135_G130D]" endpoint_result=7.12
construct_sequence="VSSSDYFSFVL [USP24_Y2138_Y2134S]" endpoint_result=1.1
construct_sequence="MLEVSYVDRNS [F10_Y384_P383S]" endpoint_result=0.439
construct_sequence="SVVVPYETPEV [TP53_Y220_P222T]" endpoint_result=0.639
construct_sequence="WKEREYEVVRD [CPS1_Y634_I632R]" endpoint_result=0.573

Items follow; give phosphorylation enrichment for each.
1. LFDPDYMKVIL [CYP4A22_Y104_YF]
2. FPRAWYRRSIA [KIAA1109_Y4272]

Reply text:
1.2
0.473

Report phosphorylation enrichment for each item below.
1. ENRKYYMDLKE [PURA_Y156]
2. NVVHEYSSELE [FGB_Y172_N170H]

Reply text:
1: 0.445; 2: 0.519
